- Target: IKZF2 (Homo sapiens (Human), UniProt Q96SW2+Q9UKS7)
- Sequence (Q9UKS7 whole entry): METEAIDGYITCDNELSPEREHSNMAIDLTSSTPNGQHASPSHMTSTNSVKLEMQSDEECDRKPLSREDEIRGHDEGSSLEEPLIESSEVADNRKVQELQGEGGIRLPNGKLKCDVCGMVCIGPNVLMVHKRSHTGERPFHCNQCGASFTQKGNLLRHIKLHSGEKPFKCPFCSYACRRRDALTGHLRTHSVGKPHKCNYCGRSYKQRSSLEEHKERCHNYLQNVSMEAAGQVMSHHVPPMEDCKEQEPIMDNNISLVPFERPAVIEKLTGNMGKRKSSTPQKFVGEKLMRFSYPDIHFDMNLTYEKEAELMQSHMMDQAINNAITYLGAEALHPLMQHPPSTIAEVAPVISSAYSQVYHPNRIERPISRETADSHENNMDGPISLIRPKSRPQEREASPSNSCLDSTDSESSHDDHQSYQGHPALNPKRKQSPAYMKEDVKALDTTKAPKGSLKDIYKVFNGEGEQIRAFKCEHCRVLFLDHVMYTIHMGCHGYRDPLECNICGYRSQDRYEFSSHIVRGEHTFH
- Sequence (Q96SW2 whole entry): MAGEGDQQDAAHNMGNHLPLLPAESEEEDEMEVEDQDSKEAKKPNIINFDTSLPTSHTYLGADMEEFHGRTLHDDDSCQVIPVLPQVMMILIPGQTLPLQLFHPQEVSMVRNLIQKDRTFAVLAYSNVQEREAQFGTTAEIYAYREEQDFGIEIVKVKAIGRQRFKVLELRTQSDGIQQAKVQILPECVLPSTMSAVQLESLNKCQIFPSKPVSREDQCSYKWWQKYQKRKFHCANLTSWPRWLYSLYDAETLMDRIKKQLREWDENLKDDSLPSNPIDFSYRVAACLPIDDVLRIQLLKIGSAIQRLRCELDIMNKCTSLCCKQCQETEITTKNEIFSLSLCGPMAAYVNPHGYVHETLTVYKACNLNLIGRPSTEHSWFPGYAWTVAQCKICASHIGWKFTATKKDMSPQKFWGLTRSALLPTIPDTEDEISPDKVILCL
- Sequence (Q16531 2-1140 partner): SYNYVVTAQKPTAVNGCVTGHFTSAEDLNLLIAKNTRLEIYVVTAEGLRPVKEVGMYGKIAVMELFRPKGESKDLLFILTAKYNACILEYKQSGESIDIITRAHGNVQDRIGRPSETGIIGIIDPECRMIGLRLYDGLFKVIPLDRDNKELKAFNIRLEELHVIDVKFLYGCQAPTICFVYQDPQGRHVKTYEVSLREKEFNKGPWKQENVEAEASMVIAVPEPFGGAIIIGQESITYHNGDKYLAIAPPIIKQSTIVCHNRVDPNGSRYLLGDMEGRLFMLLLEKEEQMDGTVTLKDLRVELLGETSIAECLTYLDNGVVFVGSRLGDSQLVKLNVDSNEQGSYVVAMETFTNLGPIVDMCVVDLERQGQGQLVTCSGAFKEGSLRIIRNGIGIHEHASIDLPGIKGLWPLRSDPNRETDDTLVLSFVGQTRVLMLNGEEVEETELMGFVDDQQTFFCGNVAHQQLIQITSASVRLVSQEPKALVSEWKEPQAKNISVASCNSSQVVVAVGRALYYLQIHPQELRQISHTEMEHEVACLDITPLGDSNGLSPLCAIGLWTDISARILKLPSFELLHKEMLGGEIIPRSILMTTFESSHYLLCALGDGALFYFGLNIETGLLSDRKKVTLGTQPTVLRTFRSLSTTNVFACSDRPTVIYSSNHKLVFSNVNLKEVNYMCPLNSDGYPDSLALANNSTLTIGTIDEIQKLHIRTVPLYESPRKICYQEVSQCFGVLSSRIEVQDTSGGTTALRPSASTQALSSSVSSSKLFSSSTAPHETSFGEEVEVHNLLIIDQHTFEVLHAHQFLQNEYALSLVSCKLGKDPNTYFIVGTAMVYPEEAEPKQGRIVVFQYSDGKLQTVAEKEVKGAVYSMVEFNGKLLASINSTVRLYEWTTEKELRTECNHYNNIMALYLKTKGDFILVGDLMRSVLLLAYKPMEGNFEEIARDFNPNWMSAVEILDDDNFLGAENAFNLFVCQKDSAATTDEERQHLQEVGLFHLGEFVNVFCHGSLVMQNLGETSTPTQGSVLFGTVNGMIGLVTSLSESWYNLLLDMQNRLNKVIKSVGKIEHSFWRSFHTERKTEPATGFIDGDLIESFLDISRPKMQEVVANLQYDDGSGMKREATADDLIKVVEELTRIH
- Test summary: In vitro IKZF2 HiBit Assay (HEK293T Flp-in-HiBiT cells)
- Assay type: cell-based
- Test conditions: HEK293T Flp-in-HiBiT cells, 6 hrs incubation; read-out: IKZF2 HiBit DC50
Examples of compounds with documented DC50 follow.
Endpoint label: DC50

In [3]: df
Out[3]:
                                   compound  endpoint_label      observed
0  Cn1ccc2c(CN3CC4COCC(C4)C3)cc(-c3ccc4c(c3)CN(C3CCC(=O)NC3=O)C4=O)nc21 (stereo not shown) [Example 70]            DC50    1 to 10 nM
1  O=C1CCC(N2Cc3cc(-c4cc(CN5CCC(F)C5)c5ccn(C6COC6)c5n4)ccc3C2=O)C(=O)N1 (stereo not shown) [Example 157]            DC50    1 to 10 nM
2  CO[C@H]1C[C@H](Oc2ccnc3c(CN4CCCC4)cc(-c4ccc5c(c4)CN(C4CCC(=O)NC4=O)C5=O)nc23)C1 (stereo partly shown) [Example 280]            DC50  10 to 100 nM
3  CC(C)Cn1ccc2c(CN3CCCC3)cc(-c3ccc4c(c3)CN(C3CCC(=O)NC3=O)C4=O)nc21 (stereo not shown) [Example 140]            DC50        < 1 nM
4  CC(C)n1nc(N)c2nc(-c3ccc4c(c3)CN(C3CCC(=O)NC3=O)C4=O)cc(CN3CCCC3)c21 (stereo not shown) [Example 177]            DC50    1 to 10 nM
5  O=C1CCC(N2Cc3cc(-c4cc(CN5CCCC5)c5[nH]nc(C6CCC6)c5n4)ccc3C2=O)C(=O)N1 (stereo not shown) [Example 224]            DC50        < 1 nM
6  COCC1CCCN1Cc1cc(-c2ccc3c(c2)CN(C2CCC(=O)NC2=O)C3=O)nc2c1ccn2C (stereo not shown) [Example 106]            DC50    1 to 10 nM
